Listed here: items and their measured inhibition.
# methodSummary: growth inhibition, single agents and combos, LFS_MB_1R, cell-based, cisplatin or BGB combos, synergistic combos for chromothripsis tumors (AID 1671452);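 also: cells exposed for 96 hours before readout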
# conditionDetails: LFS_MB_1R medulloblastoma cells, measured here: combination with cisplatin, at 0.5 µM, stronger effect = higher value
measuredAttribute: inhibition

>>> df
                                   compound  result
0  CC1OC(n2cc(F)c(=O)[nH]c2=O)C(O)C1O (stereo unspecified)  -21.6%
1      CC1CNC(=O)NC1=O (stereo unspecified)   5.53%
2  C[n+]1ccc(-c2c3nc(c(-c4cc[n+](C)cc4)c4ccc([nH]4)c(-c4cc[n+](C)cc4)c4nc(c(-c5cc[n+](C)cc5)c5ccc2[nH]5)C=C4)C=C3)cc1  -36.8%
3  CON=C1CN(c2nc3c(cc2F)c(=O)c(C(=O)O)cn3C2CC2)CC1CN (stereo unspecified)  -33.2%
4  CC(Oc1cc(-c2cnn(C3CCNCC3)c2)cnc1N)c1c(Cl)ccc(F)c1Cl (stereo unspecified)    -34%
5  COc1ccccc1S(=O)(=O)Nc1ccc2c(c1)CN(C)C(=O)N2  -10.4%

Provenance of the data: PubChem BioAssay
